test: A549 cell viability effects, profiling panel, calcein-AM fluorescence, 48 h, basal (AID 1162)
condition_notes: higher = more signal
Returns one of Yes or No; Yes when z-score is >= -0.2.

[
  {
    "compound": "CCCN1C(=O)[C@@]2(c3ccc([N+](=O)[O-])cc3)CC(=O)N(C3CCCCC3)[C@@H]2c2ccc(CO)cc21",
    "assigned_label": "No"
  },
  {
    "compound": "CCCCC(=C=CC[C@@H](O)c1ccccc1OCCO)C[C@@H](O)c1ccccn1",
    "assigned_label": "Yes"
  },
  {
    "compound": "O=C1N(Cc2ccccc2)c2ccccc2C[C@@]12N=C(c1ccc(OCCCO)cc1)O[C@H]2c1ccccc1",
    "assigned_label": "No"
  },
  {
    "compound": "[N-]=[N+]=NCc1ccccc1[C@H]1OC(c2ccc(OCCCO)cc2)=N[C@@]1(Cc1ccccc1N=[N+]=[N-])C(=O)N1CCOCC1",
    "assigned_label": "No"
  },
  {
    "compound": "COC(=O)[C@@]1(Cc2ccc(F)cc2)[C@H]2c3cc(C(=O)N4CCCC4)n(Cc4ccc(OC(F)(F)F)cc4)c3C[C@H]2CN1C(=O)c1ccccc1",
    "assigned_label": "No"
  },
  {
    "compound": "O=C1c2ccccc2[C@@]2(Cc3ccccc3N(CC(F)(F)F)C2=O)[C@H](c2ccc(CO)cc2)N1Cc1ccccc1",
    "assigned_label": "No"
  },
  {
    "compound": "[N-]=[N+]=NCc1ccccc1C[C@]1(C(=O)N2CCCCC2)COC(c2ccc(OCCCO)cc2)=N1",
    "assigned_label": "Yes"
  },
  {
    "compound": "C=CCNC(=O)[C@@H]1[C@H]2C(=O)O[C@H](c3ccccc3)[C@H](c3ccccc3)N2[C@H](c2ccc(OCCO)cc2)[C@@]12C(=O)Nc1ccc(C#CC3=CCCCC3)cc12",
    "assigned_label": "No"
  },
  {
    "compound": "COc1ccc([Si](C)(C)[C@H]2[C@H](CC(=O)N3CCC[C@H]3CO)O[C@@]3(C(=O)N(C)c4ccccc43)[C@@H]2C)cc1",
    "assigned_label": "Yes"
  },
  {
    "compound": "C=C(COC)/C(=C/C[C@@H](OC(=O)c1ccncc1)c1ccccc1OCCO)c1cnc2ccccc2c1",
    "assigned_label": "Yes"
  },
  {
    "compound": "C=CCNC(=O)[C@@H]1[C@H]2C(=O)O[C@H](c3ccccc3)[C@H](c3ccccc3)N2[C@H](c2ccc(O)cc2)[C@@]12C(=O)N(C(=O)OCCOC)c1ccc(C#CCC(C(=O)OC)C(=O)OC)cc12",
    "assigned_label": "Yes"
  },
  {
    "compound": "C=CCN1C(=O)[C@]2(O[C@H](CCO)[C@@H]([Si](C)(C)c3ccc(OC)cc3)[C@@H]2C)c2cc(N3C(=O)c4ccccc4Oc4ccccc43)ccc21",
    "assigned_label": "No"
  },
  {
    "compound": "COC(=O)[C@@]1(Cc2ccc(F)cc2)[C@@H]2C(=CC(=O)[C@H]2CC(=O)C(=O)N2CCCC2)CN1C(=O)c1ccccc1",
    "assigned_label": "No"
  },
  {
    "compound": "COCCOC(=O)N1C(=O)[C@@]2(c3cc(C#CC4=CCCCC4)ccc31)[C@H](c1ccc(O)cc1)N1[C@H](c3ccccc3)[C@H](c3ccccc3)OC(=O)[C@H]1[C@@H]2C(=O)N1CCc2cc(OC)c(OC)cc2C1",
    "assigned_label": "No"
  },
  {
    "compound": "C=CC[C@]12N=C(c3ccc(OCCCO)cc3)O[C@H]1c1ccccc1N(CCC)C2=O",
    "assigned_label": "No"
  },
  {
    "compound": "C=CCC(OC(C)=O)[C@@H]1[C@@H](N(Cc2cccc3ccccc23)C(=O)c2ccc(C)cc2)c2cc(OCCCO)ccc2N1C(=O)Cc1ccc2ccccc2c1 (stereo partly drawn)",
    "assigned_label": "Yes"
  },
  {
    "compound": "C=C[C@H](OC)[C@@H](O)c1ccc(OC)c(O)c1",
    "assigned_label": "Yes"
  },
  {
    "compound": "C=CCNC(=O)[C@@H]1[C@H]2C(=O)O[C@H](c3ccccc3)[C@H](c3ccccc3)N2[C@H](c2ccc(OCCO)cc2)[C@@]12C(=O)N(C(=O)OCCOC)c1ccccc12",
    "assigned_label": "No"
  },
  {
    "compound": "CCCC[C@@H](O)C1=C(C)Cn2c(=O)n(-c3ccccc3)c(=O)n2[C@H]1CO",
    "assigned_label": "Yes"
  },
  {
    "compound": "C=CCOC(=O)[C@@H]1[C@H]2C(=O)O[C@H](c3ccccc3)[C@H](c3ccccc3)N2[C@H](c2ccc(OCCOC(=O)[C@@H]3C[C@@H]4C(=O)N[C@@H](CC(C)C)C(=O)N4[C@@H]3c3ccc(O)cc3)cc2)[C@@]12C(=O)Nc1ccc(I)cc12",
    "assigned_label": "No"
  },
  {
    "compound": "CCCC1(C(=O)OC)C=C2C(=C(C(C)C)C(=O)C2C)CN1 (stereo not drawn)",
    "assigned_label": "No"
  },
  {
    "compound": "CCCCN1CC=CC23O[C@@H]4C=CCCOC(=O)C4[C@H]2C(=O)N(CCO)[C@@H]3C1=O (stereo partly drawn)",
    "assigned_label": "No"
  },
  {
    "compound": "COC(=O)c1ccc(OC)c(/C=C\\CC(OC(=O)c2ccncc2)c2ccccc2)c1 (stereo not drawn)",
    "assigned_label": "Yes"
  },
  {
    "compound": "COC(=O)C(CC#Cc1ccc2c(c1)[C@]1(C(=O)N2)[C@H](C(=O)NC[C@H](O)c2ccccc2)[C@H]2C(=O)O[C@H](c3ccccc3)[C@H](c3ccccc3)N2[C@@H]1c1ccc(O)cc1)C(=O)OC",
    "assigned_label": "No"
  },
  {
    "compound": "COc1ccc(NN2C(C(O)c3ccccc3)C=CC3C(=O)N(C4CCCCC4)C(=O)C32)cc1 (stereo not drawn)",
    "assigned_label": "No"
  },
  {
    "compound": "COC(=O)C1=CC(c2ccc(CO)cc2)=CC(C2CC2)N(Cc2cc3c(cc2Br)OCO3)C=C1C(=O)OC (stereo not drawn)",
    "assigned_label": "Yes"
  },
  {
    "compound": "COCCCNC(=O)[C@@]1(Cc2ccccc2I)c2ccccc2C(=O)N(Cc2ccccc2C(F)(F)F)[C@H]1c1ccc(CO)cc1",
    "assigned_label": "No"
  },
  {
    "compound": "Cc1ccc(S(=O)(=O)N2[C@@H](c3ccccc3)C(C(=O)O)=C[C@H]2C(C)(C)C)cc1",
    "assigned_label": "No"
  }
]

###

test: P. aeruginosa biofilm formation inhibitors, primary screen, PAO1 strain, BacTiter-Glo luminescence, LB-PBS (AID 1144)
condition_notes: 12 h, higher = more signal
The entries below are paired with their reported z-score.

[
  {
    "smiles_entry": "COCCOC(=O)N1C(=O)[C@@]2(c3cc(C#CCCO)ccc31)[C@H](C(=O)N1CCN(c3ncccn3)CC1)[C@H]1C(=O)O[C@H](c3ccccc3)[C@H](c3ccccc3)N1[C@@H]2c1ccc(OCCO)cc1",
    "z-score": 0.386
  },
  {
    "smiles_entry": "COC(=O)[C@H]1N=C(c2ccc(OCCCO)cc2)O[C@H]1c1ccccc1N=[N+]=[N-]",
    "z-score": -0.17
  },
  {
    "smiles_entry": "CC(C)(C)OC(=O)N1[C@@H](C=C(Br)Br)COC1(C)C",
    "z-score": 0.278
  },
  {
    "smiles_entry": "CC(C)(C)OC(=O)CC[C@]1(C(=O)N2CCOCC2)COC(c2ccc(OCCCO)cc2)=N1",
    "z-score": -0.367
  }
]

###

System: XIP peptide (Xip251-270) binding
test: small-molecule binders of XIP peptide, primary screen, biochemical, small-molecule microarray, fluorescence 635/667 nm, 0.1 µg/mL protein (AID 1182)
condition_notes: fluorescent protein binding, 635 nm, higher = more signal, called active from +8 up or from −8 down
The entries below are paired with their reported composite z-score.
measurement_label: composite z-score

[
  {
    "compound": "COCCOC(=O)N1C(=O)[C@@]2(c3cc(C#CCCO)ccc31)[C@H](C(=O)N1CCN(c3ncccn3)CC1)[C@H]1C(=O)O[C@H](c3ccccc3)[C@H](c3ccccc3)N1[C@@H]2c1ccc(OCCO)cc1",
    "numeric_result": 0.472
  },
  {
    "compound": "CCCCC(=C=CC[C@@H](O)c1ccccc1OCCO)C[C@@H](O)c1ccccn1",
    "numeric_result": 0.161
  },
  {
    "compound": "CN(C)CCCCNC(=O)[C@H]1C[C@H]2C(=O)N[C@@H](CCCCN(C)C)C(=O)N2[C@H]1c1ccc(O)cc1",
    "numeric_result": 0.0043
  },
  {
    "compound": "COCCOC(=O)N1C(=O)[C@@]2(c3cc(C#CCC(C(=O)OC)C(=O)OC)ccc31)[C@H](C(=O)N1CCc3cc(OC)c(OC)cc3C1)[C@H]1C(=O)O[C@H](c3ccccc3)[C@H](c3ccccc3)N1[C@@H]2c1ccccc1OCCO",
    "numeric_result": 0.629
  },
  {
    "compound": "CS(=O)(=O)CCOC(=O)C1=CC(CCCO)=CC(C2CC2)N(Cc2sc3ccccc3c2Cl)C=C1C(=O)OCCS(C)(=O)=O (stereo not drawn)",
    "numeric_result": 1.05
  },
  {
    "compound": "COC(=O)C1=CC(c2ccc(CO)cc2)=CC(C2CC2)N(Cc2cc3c(cc2Br)OCO3)C=C1C(=O)OC (stereo not drawn)",
    "numeric_result": 1.59
  },
  {
    "compound": "O=C1NC(=O)C2C1C=CC(C(O)C(O)CO)N2Nc1ccccn1 (stereo not drawn)",
    "numeric_result": -0.325
  },
  {
    "compound": "COc1ccc(CCNC(=O)[C@@]2(c3ccc([N+](=O)[O-])cc3)CC(=O)N(C3CCCCC3)[C@@H]2c2ccc(CO)cc2I)cc1",
    "numeric_result": 0.548
  },
  {
    "compound": "COCCCNC(=O)[C@@]1(Cc2ccccc2I)c2ccccc2C(=O)N(Cc2ccccc2OC)[C@H]1c1ccc(CO)cc1",
    "numeric_result": 1.02
  },
  {
    "compound": "COCCOC(=O)N1C(=O)[C@@]2(c3cc(C#CC4(O)CCCCCC4)ccc31)[C@H](C(N)=O)[C@H]1C(=O)O[C@H](c3ccccc3)[C@H](c3ccccc3)N1[C@@H]2c1ccc(OCCO)cc1",
    "numeric_result": 1.56
  },
  {
    "compound": "COc1cc(Cc2cc3c(c(-c4ccccc4)n2)[Si](C(C)C)(C(C)C)OC3)cc(OC)c1OC",
    "numeric_result": -0.166
  },
  {
    "compound": "[N-]=[N+]=NCc1ccccc1[C@H]1OC(c2ccc(OCCCO)cc2)=N[C@@]1(Cc1ccccc1N=[N+]=[N-])C(N)=O",
    "numeric_result": -0.19
  },
  {
    "compound": "CN1C(=O)C2C(C1=O)C1C=C(CCCO)C2C(C2CC2)N1C (stereo not drawn)",
    "numeric_result": 0.58
  },
  {
    "compound": "CC1C2C(CCCO)=CC(C3C(=O)N(C)C(=O)C23)N1Cc1cccc(OC(F)(F)F)c1 (stereo not drawn)",
    "numeric_result": 1.17
  },
  {
    "compound": "COC(=O)[C@H](Cc1ccccc1)N1CC(C)(OC)O[C@@H](Cc2ccccc2)[C@H]1/C=C/C1CC1 (stereo partly drawn)",
    "numeric_result": 0.242
  },
  {
    "compound": "C=CCC(OC(C)=O)[C@@H]1[C@@H](N(Cc2ccc(-c3ccccc3)cc2)C(=O)Cc2ccc(OC)cc2)c2cc(OCCCO)ccc2N1C(=O)c1ccc2ccccc2c1 (stereo partly drawn)",
    "numeric_result": -0.965
  },
  {
    "compound": "O=C(NCC(F)(F)F)[C@@H]1c2ccccc2C(=O)N(Cc2cc(C(F)(F)F)cc(C(F)(F)F)c2)[C@H]1c1ccc(CO)cc1",
    "numeric_result": -0.398
  },
  {
    "compound": "CC(C)(C)OC(=O)CC[C@@]1(C(=O)N2CCOCC2)N=C(c2ccc(OCCCO)cc2)O[C@@H]1c1ccccc1CN=[N+]=[N-]",
    "numeric_result": 3.3
  },
  {
    "compound": "COCCOC(=O)N1C(=O)[C@@]2(c3cc(C#CCNC(N)=O)ccc31)[C@H](c1ccccc1OCCO)N1[C@H](c3ccccc3)[C@H](c3ccccc3)OC(=O)[C@H]1[C@@H]2C(=O)N1CCCCCCC1",
    "numeric_result": 0.564
  },
  {
    "compound": "COC(=O)C(CC#Cc1ccc2c(c1)[C@]1(C(=O)N2)[C@H](C(=O)NC[C@H](O)c2ccccc2)[C@H]2C(=O)O[C@H](c3ccccc3)[C@H](c3ccccc3)N2[C@@H]1c1ccc(O)cc1)C(=O)OC",
    "numeric_result": 0.321
  },
  {
    "compound": "O=C(O)C1=CC[C@H]2C(=O)N(c3ccccc3)C(=O)[C@@H]12",
    "numeric_result": 0.688
  },
  {
    "compound": "C=CCNC(=O)[C@H]1[C@@H]2C(=O)O[C@@H](c3ccccc3)[C@@H](c3ccccc3)N2[C@@H](c2ccc(OCCO)cc2)[C@]12C(=O)Nc1ccc(C#Cc3ccc(OC)cc3)cc12",
    "numeric_result": 0.43
  },
  {
    "compound": "C=C(CCCC)/C(=C/C[C@@H](OC(C)=O)c1cccc(OCCO)c1)c1cc(C(=O)OC)ccc1OC",
    "numeric_result": -0.234
  },
  {
    "compound": "C=C(C(=O)CC[C@@H](OC(=O)c1cccnc1)c1cccc(OCCO)c1)C(C)C",
    "numeric_result": -0.0726
  },
  {
    "compound": "COC(=O)[C@]1(Cc2ccccc2CN=[N+]=[N-])N=C(c2ccc(OCCCO)cc2)O[C@@H]1c1ccccc1N=[N+]=[N-]",
    "numeric_result": 0.0771
  },
  {
    "compound": "COc1cc2c(cc1O)C(C)N(Cc1sc3ccccc3c1Cl)CC2 (stereo not drawn)",
    "numeric_result": -0.173
  },
  {
    "compound": "COc1ccc(NN2C(C(O)c3ccc(F)cc3)C=CC3C(=O)N(C4CCCCC4)C(=O)C32)cc1 (stereo not drawn)",
    "numeric_result": 0.331
  },
  {
    "compound": "C=CCNC(=O)[C@@H]1[C@H]2C(=O)O[C@H](c3ccccc3)[C@H](c3ccccc3)N2[C@H](c2ccc(OCCO)cc2)[C@@]12C(=O)N(C(=O)OCCOC)c1ccccc12",
    "numeric_result": 1.44
  }
]
